Target: estradiol receptor (Bos taurus, UniProt P49884)
Sequence (P49884 1-596): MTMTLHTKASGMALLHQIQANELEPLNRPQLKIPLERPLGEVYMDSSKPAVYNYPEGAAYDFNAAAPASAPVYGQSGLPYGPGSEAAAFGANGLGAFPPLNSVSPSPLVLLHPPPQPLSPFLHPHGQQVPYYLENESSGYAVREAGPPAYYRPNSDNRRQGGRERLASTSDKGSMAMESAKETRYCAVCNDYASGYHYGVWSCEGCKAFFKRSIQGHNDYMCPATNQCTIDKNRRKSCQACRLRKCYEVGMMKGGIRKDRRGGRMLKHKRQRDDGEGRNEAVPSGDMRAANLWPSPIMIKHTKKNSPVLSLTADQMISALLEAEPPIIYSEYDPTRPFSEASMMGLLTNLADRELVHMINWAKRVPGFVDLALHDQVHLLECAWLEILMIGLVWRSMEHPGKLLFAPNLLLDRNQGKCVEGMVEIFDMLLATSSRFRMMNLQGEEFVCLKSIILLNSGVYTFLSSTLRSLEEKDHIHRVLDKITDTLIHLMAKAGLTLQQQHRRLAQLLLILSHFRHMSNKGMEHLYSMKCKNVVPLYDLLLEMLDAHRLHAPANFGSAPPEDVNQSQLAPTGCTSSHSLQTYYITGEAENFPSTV
MEASURED QUANTITY: Kd

Briefly, Kd measured for C[C@]12CC[C@@H]3c4ccc(O)cc4CC[C@H]3[C@@H]1CC[C@@H]2OC(=O)CCC(=O)O [17β-estradiol 17-hemisuccinate] : ~700 nM
